- Tested Target: MCH-5 (Homo sapiens)
- Sequence (Q14790 217-374 limits assumed, species assumed): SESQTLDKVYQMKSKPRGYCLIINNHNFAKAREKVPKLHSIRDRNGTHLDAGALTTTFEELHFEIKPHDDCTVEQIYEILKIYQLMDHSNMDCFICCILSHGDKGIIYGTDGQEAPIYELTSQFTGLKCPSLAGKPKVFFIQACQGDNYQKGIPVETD
- Sequence (Q14790 385-479 limits assumed, species assumed): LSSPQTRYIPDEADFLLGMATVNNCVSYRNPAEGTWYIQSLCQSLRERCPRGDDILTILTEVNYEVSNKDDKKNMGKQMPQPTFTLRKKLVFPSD
- Method Notes: Dissociation constant Ki and irreversible rate constant k3 for irreversible inhibitors, Mch5
- Cond: continuous assay 60 min, reaction initiated by adding enzyme
- Excerpt: For the irreversible inhibition of a ICE/ced-3 Family Protease enzyme with a competitive irreversible inhibitor; using the model represented by the following formulas: […] The product formation at time t may be expressed as: [formula] where E, I, EI and E-I denote the active enzyme, inhibitor, non-covalent enzyme-inhibitor complex and covalent enzyme-inhibitor adduct, respectively. […]
pKi: −log10 of the molar value. Where a SMILES comes first, the peptide text is derived from it. The star is where a group is joined. Cbz = O=C(OCc1ccccc1)*; CH2F = FC*
We use 7 as the dividing line for pKi: on or above the line is 1 (yes), below is 0 (no).

Consider the following illustrative entries.
Compound: CC(C)[C@H](NC(=O)COc1cccc2ccccc12)C(=O)N[C@@H](CC(=O)O)C(=O)COP(C)(=O)c1cccc2ccccc12 (stereo partly shown)
Category Label: 1 (yes)

Compound: CC(C)[C@H](NC(=O)CCOc1cccc2ccccc12)C(=O)NC(CC(=O)O)C(=O)CF (mixture of isomers)
Category Label: 1 (yes)

Compound: CC(C)[C@H](NC(=O)COc1cccc2ccccc12)C(=O)N[C@@H](CC(=O)O)C(=O)COc1cccc(F)c1F
Category Label: 0 (no)

Compound: CC(NC(=O)C(NC(=O)OCc1ccccc1)C(C)C)C(=O)NC(CC(=O)O)C(=O)CF (stereo not drawn) [refer., Cbz-ValAlaAsp-CH2F, reference compound] (Cbz-Val-Ala-Asp-CH2F; configuration not given here)
Category Label: 1 (yes)

Compound: CC(C)[C@H](NC(=O)COc1cccc2ccccc12)C(=O)N[C@@H](CC(=O)O)C(=O)COc1ccc(F)c(F)c1
Category Label: 0 (no)

In plain terms: is recorded pKi at least 7 for `CC(C)[C@H](NC(=O)COc1ccc2ccccc2c1)C(=O)N[C@@H](CC(=O)O)C(=O)COc1c(F)cc(F)cc1F` ?
0 (no)

In plain terms: is recorded pKi at least 7 for C[C@H](NC(=O)COc1ccccc1-c1ccccc1)C(=O)NC(CC(=O)O)C(=O)COc1c(F)c(F)cc(F)c1F (stereo partly shown) ?
0 (no)

In plain terms: is recorded pKi at least 7 for `CC(C)[C@H](NC(=O)COc1cccc2ccccc12)C(=O)N[C@@H](CC(=O)O)C(=O)COc1ccccc1` ?
0 (no)

In plain terms: is recorded pKi at least 7 for CCCCCCP(=O)(OCC(=O)[C@H](CC(=O)O)NC(=O)[C@@H](NC(=O)COc1cccc2ccccc12)C(C)C)c1ccc(F)cc1 (stereo partly shown) ?
0 (no)

In plain terms: is recorded pKi at least 7 for `CC(C)[C@H](NC(=O)CCOc1cccc2ccccc12)C(=O)N[C@@H](CC(=O)O)C(=O)COC(=O)c1c(Cl)cccc1Cl` ?
0 (no)

* * *

- Tested Target: MCH-3 (Homo sapiens, UniProt P55210)
- Sequence (P55210 24-198 limits assumed, species assumed): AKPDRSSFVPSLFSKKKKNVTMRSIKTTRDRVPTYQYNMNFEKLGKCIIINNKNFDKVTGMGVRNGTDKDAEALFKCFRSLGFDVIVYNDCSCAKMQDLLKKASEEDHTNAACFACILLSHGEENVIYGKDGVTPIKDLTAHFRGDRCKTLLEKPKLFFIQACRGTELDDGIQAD
- Sequence (P55210 207-303 limits assumed, species assumed): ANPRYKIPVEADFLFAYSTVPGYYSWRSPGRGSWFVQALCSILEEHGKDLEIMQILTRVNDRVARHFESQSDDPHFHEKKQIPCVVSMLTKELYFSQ
- Method Notes: Fluorescence enzyme assay, IC50 determination, Mch3
- Type: biochemical
- Cond: Table 3; method of Preparation 3A; read-out: MCH3 I50
Endpoint Label: IC50 (µM)
Entry rule: numbers only, all in µM.

Compound: CC(C)C[C@H](NC(=O)COc1cccc2ccccc12)C(=O)N[C@H](C=O)CC(=O)O
Tested Target: MCH-3 (Homo sapiens, UniProt P55210)
IC50 [µM]: 1.95

# get_value(readout='IC50', item= `COc1ccc(OCC(=O)N[C@@H](CC(C)C)C(=O)N[C@H](C=O)CC(=O)O)c2ccccc12` )
4.08

# get_value(readout='IC50', item= `CC(C)C[C@H](NC(=O)COc1ccc(Oc2ccccc2)cc1)C(=O)N[C@H](C=O)CC(=O)O` )
6.82

# get_value(readout='IC50', item= CC(C)C[C@H](NC(=O)C(C)Oc1cccc2cc(Br)ccc12)C(=O)N[C@H](C=O)CC(=O)O (stereo partly drawn) )
32.4

# get_value(readout='IC50', item= `CC(C)C[C@H](NC(=O)COc1c(Cl)cc(Cl)c2ccccc12)C(=O)N[C@H](C=O)CC(=O)O` )
3.61

# get_value(readout='IC50', item= `CC(C)C[C@H](NC(=O)CCSc1ccc2ccccc2c1)C(=O)N[C@H](C=O)CC(=O)O` )
5.89
